# Test system: Escherichia coli HO141
# ASSAY_PROTOCOL: Antimicrobial assay, E. coli
# Format: cell-based
# CONDITION_INFO: Escherichia coli, HO141, read-out: Antimicrobial activity (IC50, μM) Ec
QUANTITY_NAME: IC50 (µM)
The reply should contain only the number, in µM.

CC1=C[C@@H]2C[C@@H](C)CC[C@@H]2[C@@](C)(C(=O)C2=C(O)[C@@H](CO)NC2=O)[C@@H]1/C=C/C=C/C(=O)O [Compound 8] ... 28

What value of IC50 has been recorded for this entry: CC1=C[C@H]2C[C@@H](C)CC[C@@H]2[C@@](C)(C(=O)C2=C(O)[C@@H](CO)N(C)C2=O)[C@H]1/C=C/C=C/CO [Compound 7]
21

Every entry's value here was drawn from paper PMC10470909.
